# reported TGI; entries follow
Tested on: 786-0 renal
method: NCI tumour cell line growth inhibition, 48 h

compound | TGI
Cc1ccc(Cl)c(NS(=O)(=O)c2ccc(-c3cnc(C4CC4)o3)cc2)c1 | > 100 µM
Clc1ccc2c(c1)N(C1CCCN(Cc3ccccc3)C1)c1ccccc1S2 (centres undefined) | > 100 µM
NS(=O)(=O)c1ccc(NC(=O)C2C(=O)C(=O)N(c3ccc(S(N)(=O)=O)cc3)C2=O)cc1 (centres undefined) | > 100 µM
Cc1c2ccncc2c(C)c2c1sc1ccccc12 | 17.5 µM
CC1=CP(=O)(c2ccccc2)C=C(C)C1=C(Cl)Cl (centres undefined) | 16.5 µM
O=C1Nc2ccccc2/C1=C\c1nc(-c2ccccc2F)n2ccccc12 | 10.1 µM
COC(=O)CN1C(=O)C2(C(=O)OC)OC1(c1ccc([N+](=O)[O-])cc1)C1C(=O)N(c3ccccc3)C(=O)C12 (centres undefined) | > 100 µM
C=CCCCN1CCCC(C)C1=S (centres undefined) | > 100 µM
O=S(=O)(O)c1ccc2c(N=Nc3ccc(S(=O)(=O)O)c4ccccc34)c(O)c(S(=O)(=O)O)cc2c1 | > 100 µM
CCOC(=O)c1[nH]c2cc(OC)c(OC)cc2c1CN(C)C | > 100 µM
COC1C=COC2(C)Oc3c(C)c(O)c4c(O)c(c(C5SCCS5)c(O)c4c3C2=O)NC(=O)/C(C)=C\C=CC(C)C(O)C(C)C(O)C(C)C(OC(C)=O)C1C (centres undefined) | 48.4 µM
NCCCNc1nc2ccccc2c2c(=O)c3cccc(Cl)c3sc12 | 3.05 µM
C=CCNC1=C2C[C@@H](C)C[C@H](OC)[C@H](O)[C@@H](C)/C=C(\C)[C@H](OC(N)=O)[C@@H](OC)/C=C\C=C(/C)C(=O)NC(=CC1=O)C2=O | 58.3 µM
O=[N+]([O-])c1cc(-[n+]2cc([O-])on2)ccc1Cl | 60.3 µM
Cc1ccc(/C=C/C(=O)c2sc(-n3nc(-c4ccccc4)cc3-c3ccccc3)nc2C)cc1 | > 100 µM
COc1c(C(C)(C)C)cc(CC2C(=O)C=CC2=O)cc1C(C)(C)C | > 22.3 µM
Cc1cn(Cc2cccc(C3=NCCCN3)c2)c(=O)n(Cc2cccc(C3=NCCCN3)c2)c1=O | > 100 µM
Oc1[nH]c2ccccc2c1/C=c1/ccc2c(c1)N=C(c1ccc(C(F)(F)F)cc1)N=2 | 3.56 µM
COC1=C2CC(C)CC(OC)C(OC(=O)CN)[C@H](C)/C=C(\C)C(OC(N)=O)C(OC)/C=C\C=C(/C)C(=O)NC(=CC1=O)C2=O (some centres undefined) | 6.45 µM
CN1C(=O)C(C(=O)Nc2ccccn2)C2C[C@@]1(C)Oc1ccccc12 (some centres undefined) | > 100 µM
CCOc1ccc(C(C[N+](=O)[O-])Sc2ccccc2N)cc1 (centres undefined) | 17.1 µM
CCC(C)C1=C(O)[N+]2([O-])Oc3ccc(C4=C(O)C(=O)C(c5ccc(O)cc5)=C(O)C4=O)cc3OC2(C(C)CC)C(=O)N1O (centres undefined) | > 100 µM
C=CCN1C[C@H](C)N([C@H](c2ccc(C(=O)N(CC)CC)cc2)c2cccc(OC)c2)C[C@H]1C | > 100 µM
CS(=O)(=O)OCCCSCCSCCCOS(C)(=O)=O | > 100 µM
Cc1ccc(-c2nc(-c3nccc4ccccc34)oc2-c2ccccc2)cc1 | > 100 µM
CC(=O)C1C(=O)C(=O)N(c2ccc([N+](=O)[O-])cc2)C1=O (centres undefined) | > 100 µM
Cc1nc2cc3ccccc3cc2[nH]c1=O | > 100 µM
O=C(COc1ccccc1)N(C(=O)N1CCN(c2ccccc2)CC1)S(=O)(=O)c1ccccc1 | > 100 µM
CS(=O)(=O)c1cccc(Nc2ncc3cc(-c4ccccc4Cl)ccc3n2)c1 | > 33.3 µM

----------
Form field: TGI (one value per entry).
System: HOP-62 NSCLC
method: NCI tumour cell line growth inhibition, 48 h
quantity: TGI

molecule | quantity | experimental_result
O=C1c2cccc(O)c2C(=O)c2c(O)cccc21 | TGI | > 100 µM
C=CCN1C[C@H](C)N([C@H](c2ccc(C(=O)N(CC)CC)cc2)c2cccc(OC)c2)C[C@H]1C | TGI | > 100 µM
CS(=O)(=O)c1cccc(Nc2ncc3cc(-c4ccccc4Cl)ccc3n2)c1 | TGI | > 33.3 µM
COc1cc2cc3c4c(cc(OC)c(OC)c4c2cc1OC)CCN3C | TGI | > 50 µM
CC(=O)OCC1OC(NC(=O)N(CCCl)N=O)C(OC(C)=O)C(OC(C)=O)C1OC(C)=O (stereo not given) | TGI | > 100 µM
Nc1ncc(C=O)c(NCC2(CO)CCC2)n1 | TGI | > 100 µM
COc1cc2c(c(OC)c1OC)-c1ccc(SC)c(=O)cc1[C@@H](NC(=O)C(F)(F)F)CC2 | TGI | > 100 µM
CC1C=CC(C(N)C(=O)O)O1 (stereo not given) | TGI | > 100 µM
CCN(CC)C(=S)SCC(=O)Nc1nc2c(s1)CCCC2 | TGI | > 100 µM
NC(=O)c1ccc([N+](=O)[O-])cc1 | TGI | > 100 µM

----------
Test system: UACC-257 melanoma
method: NCI tumour cell line growth inhibition, 48 h

compound_structure_string | TGI
O=C(COc1ccccc1)N(C(=O)N1CCN(c2ccccc2)CC1)S(=O)(=O)c1ccccc1 | > 100 µM
Cc1cn(Cc2cccc(C3=NCCCN3)c2)c(=O)n(Cc2cccc(C3=NCCCN3)c2)c1=O | > 100 µM
C=CCN1C[C@H](C)N([C@H](c2ccc(C(=O)N(CC)CC)cc2)c2cccc(OC)c2)C[C@H]1C | 52.3 µM

----------
Consider the following compounds and their measured TGI readings.
Tested on: OVCAR-8 ovarian
method: NCI tumour cell line growth inhibition, 48 h

compound | TGI
CC(O)(C#N)CC(O)(C(F)(F)Cl)C(F)(F)Cl (centres undefined) | > 10 µM
OCCCCn1cc(Cn2ncc3c(NCc4ccccc4)ncnc32)nn1 | > 100 µM
Cc1ccc(Cl)c(NS(=O)(=O)c2ccc(-c3cnc(C4CC4)o3)cc2)c1 | > 58.9 µM
CCOC(=O)CSC1NC(C(=O)OC)CC1OC (centres undefined) | > 100 µM
c1ccc2c(c1)c1c3c(c4c(n32)=NCCN4)CCC1 | > 100 µM
CCC/C(Cl)=N/OC(NC(=O)OCC)(C(F)(F)F)C(F)(F)F | > 100 µM
COC(=O)Cc1c([C@H]2[C@H](CC(=O)OC)c3ccccc3N2S(=O)(=O)c2ccc(C)cc2)[nH]c2ccccc12 | > 100 µM
CCOC(=O)CCC(NC(=O)c1ccc(Oc2nc3c(N)cc(C(F)(F)F)cc3nc2-c2ccccc2)cc1)C(=O)OCC (centres undefined) | > 80.7 µM
O=C1C=C2CCCC2C(C(=O)O)(C(=O)O)C1 (centres undefined) | > 100 µM
Cc1ccc(/C=C/C(=O)c2sc(-n3nc(-c4ccccc4)cc3-c3ccccc3)nc2C)cc1 | > 100 µM
CCOc1ccc(C(C[N+](=O)[O-])Sc2ccccc2N)cc1 (centres undefined) | 22.6 µM
CCCCNC(=S)OCCC(C)CCCC(C)C (centres undefined) | > 100 µM
c1ccc2c(c1)Cc1c(Cc3csc4ccccc34)ccc3cccc-2c13 | > 100 µM
COc1ccc2c(c1)C(OC)C1c3c(cc4c(c3-2)OCO4)CCN1C (centres undefined) | 13.9 µM
COc1ccc(OC)c(NC(=O)C(=O)CC(=O)c2sc(-n3nc(-c4ccccc4)cc3-c3ccccc3)nc2C)c1 | > 100 µM
CCOC(=O)NN(C(=O)OCC)C(=C(C1=CCCCC1)N1CCOCC1)N(NC(=O)OCC)C(=O)OCC | > 100 µM
O=C1Cc2cc(CCn3cncn3)c(Cl)cc2N1 | > 100 µM
Nc1nc2c(-c3ccc([N+](=O)[O-])cc3)nnn2c2ccccc12 | > 100 µM
COc1ccc(N=Nc2ccc3oc(=O)c(C(=O)Nc4ccccc4C)cc3c2)cc1 | > 10 µM
O=[N+]([O-])c1cc(N=Nc2c(O)ccc3cc(S(=O)(=O)O)ccc23)c(O)c([N+](=O)[O-])c1 | > 100 µM
COC1C=COC2(C)Oc3c(C)c(O)c4c(O)c(c(C5SCCS5)c(O)c4c3C2=O)NC(=O)/C(C)=C\C=CC(C)C(O)C(C)C(O)C(C)C(OC(C)=O)C1C (centres undefined) | 26 µM
COc1cc2c3c(n(CCCNCCCNCCN)c(=O)c2cc1OC)-c1cc2c(cc1C3=O)OCO2 | > 100 µM
CN(C)c1ccc(/C=N/c2nc3cc4sc(/N=C/c5ccc(N(C)C)cc5)nc4cc3s2)cc1 | > 100 µM
CN(C)Cc1ccc(NC(=O)c2cncc(C#Cc3cnc(N)c4ncccc34)c2)cc1F | 5.02 µM
